Test: Metabolic stability in dog blood assessed as compound remaining after 1 hr by HPLC analysis
Format: ADME, tissue-based, Canis lupus familiaris
Conditions: read-out: Stability
Would you kindly list remaining at 1 h for each of these compounds?
Answers are plain numbers, in %.

compound.smiles: COc1cc(OC)cc(/C(C)=C2\C(=O)N(Cc3ccncc3)C(=O)\C2=C\c2ccccc2)c1.Cl
unit.of.measure: %
remaining at 1 h: 60

Please examine the following record next.
Task: So what's the measured remaining at 1 h for this one? "COc1cc(OC)cc(/C(C)=C2\C(=O)N(Cc3cccnc3)C(=O)\C2=C\c2ccccc2)c1.Cl"
Output: 65

====

Experiment: Therapeutic index, ratio of ED100 for increase in bleeding time in po dosed rat to ED50 for decrease in thrombus weight in po dosed rat venous thrombosis model
Format: organism-based
Details: in vivo, read-out: TI
property.label: selectivity ratio
Answers are plain numbers.

Task: So what's the measured selectivity ratio for this one? CC(=O)CC(c1ccccc1)c1c(O)c2ccccc2oc1=O (configuration not stated)
Output: 2
